Experimental system: T1, CfaE, tip adhesin of CFA/I fimbriae on wild type ETEC strain H10407 (Escherichia coli (ETEC) strain H10407, UniProt P25734 23-360)
T1 sequence: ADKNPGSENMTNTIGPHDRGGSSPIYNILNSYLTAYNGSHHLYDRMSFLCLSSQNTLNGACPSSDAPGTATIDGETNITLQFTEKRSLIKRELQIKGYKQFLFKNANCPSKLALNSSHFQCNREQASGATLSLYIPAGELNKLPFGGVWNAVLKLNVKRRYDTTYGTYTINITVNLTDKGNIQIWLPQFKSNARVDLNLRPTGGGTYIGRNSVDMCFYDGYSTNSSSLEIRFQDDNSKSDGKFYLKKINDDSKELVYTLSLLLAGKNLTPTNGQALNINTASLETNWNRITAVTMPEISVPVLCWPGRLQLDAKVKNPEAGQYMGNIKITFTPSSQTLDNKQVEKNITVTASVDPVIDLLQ
Assay procedure: cell-based or functional assay
Catalogue of binders with associated MIC in HAI
// note: answer is a bare numeric in µg/mL

Some solved entries appear below for comparison.
anti-CfaE mouse mAb P1F9 (antibody, V domains shown) VH: QVQLQQPGAELVKPGASVKLSCKASGYTFTSYWMHWVRQRPGQGLDWIGEIDPSDSYINYNQKFKGKATLTVDKSSSTAYMQLSSLTSEDSAVYYCGRKSLGVSVLAYWGQGTPVTVSA VL: DIVMTQSHKFMSTSVGDRVSISCTASQDVNAAVAWYQQKPGQSPKLLIYWASTRHTGVPDRFTGSGSGTDYTLTISSVQAEDLALYYCQQHYSTPLTFGAGTKLELK | 1.5
anti-CfaE mouse mAb P8D10 (antibody, V domains shown, also called full length P8D10 mAb) VH: QIQLVQSGPELKKPGETVKISCKASGYTFTNYGMNWVKQAPGKGLKWMGWINTYTGQSTYADDFKGRFAFSLETSASTAHLQISNLKNEDAATYFCARMEYGNYENALDYWGQGTSVTVSS VL: DIVMTQSHKFMSTSIGDRVSITCKASQDVSTAVVWYQQKPGHSPKLLIYSASYRYTGVPDRFTGSGSGTDFTFTISSVQAEDLAVYYCLQHFSTPRTFGGGTNLEIK | 1.2

Turning now to a further record.
binder anti-CfaE mouse mAb P5C7 (antibody, V domains shown) VH: QIQLVQSGPELKKPGETVKISCKASGYTFTNYGMNWVKQAPGKGLKWMGWINTYTGEPTYTDDFKGRFAFSLETSASTAYLQINSLKTEDTATYFCARMEYGNYENAMDSWGQGTSVTVSS VL: DTVMTQSHKFMSTSVGDRVSITCKASQDVSTAVVWYQQKPGQSPKLLIYSASYRYTGVPDRFTGSGSGTDFTFTISSVQAEDLAVYYCLQHFNIPRTFGGGTKLEIK , MIC in HAI observed: 1.2
